As shown below, each of these molecules has a reported melting point value.

Noted for COCCO[C@H]1c2ccn3c(C)c(C)nc3c2N[C@H](c2ccccc2)[C@H]1OC(=O)OC1CC(C)CCC1C(C)C (stereo partly shown) : its melting point reads 63 to 65 °C

Noted for `COCCO[C@H]1c2ccn3c(C)c(C)nc3c2N[C@H](c2ccccc2)[C@H]1OC(=O)CN(C)C` : its melting point reads 206 to 207 °C

Noted for `CCC(=O)O[C@@H]1[C@@H](c2ccccc2)Nc2c(ccn3c(C)c(C)nc23)[C@H]1OCCOC` : its melting point reads 106 to 107 °C

Below: the item to evaluate.
Noted for CO[C@@H]1c2ccn3c(C)c(C)nc3c2N[C@H](c2ccccc2)[C@H]1OC(=O)c1ccccc1 [Example 10] : its melting point reads 82 to 84 °C

====

As shown below, each of these compounds has a reported melting point value.

Noted for `CCN(CC)C(=O)O[C@@H]1[C@@H](c2ccccc2)Nc2c(ccn3c(C)c(C)nc23)[C@@H]1OCCOC` : its melting point reads 50 to 52 °C

More entries:
Noted for `CO[C@H]1c2ccn3c(C)c(C)nc3c2N[C@H](c2ccccc2)[C@H]1OC(=O)c1ccccc1` : its melting point reads 78 to 80 °C

Noted for `CCO[C@@H]1c2ccn3c(C)c(C)nc3c2N[C@H](c2ccccc2)[C@H]1OC(C)=O` : its melting point reads 182 to 184 °C

Noted for `COCCO[C@H]1c2ccn3c(C)c(C)nc3c2N[C@H](c2ccccc2)[C@H]1OC(=O)c1ccccc1` : its melting point reads 78 to 80 °C

Noted for `COC(=O)O[C@@H]1[C@@H](c2ccccc2)Nc2c(ccn3c(C)c(C)nc23)[C@H]1OC` : its melting point reads 178 to 179 °C

Noted for `CO[C@@H]1c2ccn3c(C)c(C)nc3c2N[C@H](c2ccccc2)[C@H]1OC=O` : its melting point reads 152 to 153 °C
